The following compounds are listed with their measured GI50 values.
System: Hs-578T
Assay: NCI tumour cell line growth inhibition, 48 h
Activity calls are given as the source filed them. No stated cut-off is given here; in the data, active = GI50 up to about 1.1 µM and inactive = higher. Square brackets hold non-standard residues; d marks the D form. Peptide text beside a SMILES is read from it. * marks the point of attachment. Boc = CC(C)(C)OC(=O)*; OBn = c1ccc(CO*)cc1

Below, each entry is followed by its recorded GI50 result.
Enquiry: Which GI50 value is on record for Cc1ccc(-c2n[nH]c(=O)[nH]2)cc1 ?
Return: > 100 µM (inactive)

Enquiry: Param item: Cc1ccc(C(=O)O)cc1S(=O)(=O)Nn1cnc2ccc(S(=O)(=O)Nc3ccccc3C(=O)O)cc2c1=O
Return: > 100 µM (inactive)

Enquiry: Please answer likewise for COc1ccc2c(c1)CC1C3(CCCCC23)CC[N+]1(C)C (stereo not given)
Return: > 100 µM (inactive)

Enquiry: And the next one, O=[N+]([O-])c1ccc(CN(CCCl)OCCCl)cc1 ?
Return: > 100 µM (inactive)

Enquiry: Do the same for Nc1ncnc2c1ncn2C=C=CCO please
Return: > 100 µM (inactive)

---
Enquiry: What does the data say about its GI50? Entry: O=C(c1ccco1)N(C(=S)OCc1ccccn1)c1ccccc1
Return: > 100 µM (inactive)

Enquiry: Cool, now C[C@@H](NC(=O)CNC(=O)OC(C)(C)C)C(=O)N[C@@H](Cc1ccccc1)C(=O)OCc1ccccc1 (Boc-Gly-[dA]-Phe-OBn)
Return: 22.3 µM (inactive)

Enquiry: Quick one: N#Cc1c2ccc([N+](=O)[O-])cc2c(=O)n2c1[nH]c1ccc(C(F)(F)F)cc12
Return: 24.4 µM (inactive)

Enquiry: Query Cc1c(C)c2c(c(N)c1C#N)C(=O)N(OS(=O)(=O)c1ccccc1)C2=O next
Return: 34.8 µM (inactive)

Enquiry: Subsequent entry: O=C1CN(c2ccc(Cl)cc2)C(=O)CN1CCN1CC(=O)N(c2ccc(Cl)cc2)CC1=O
Return: > 100 µM (inactive)

src = ChEMBL document CHEMBL1201862
